# reported Peptide MIC Alone; entries follow
System: bacterial isolates
Assay: microbe, parasite or virus in culture
Type: cell-based
Conditions: A. baumannii ABI001; Tobramycin section
Experimental Endpoint: Peptide MIC Alone

ILKKWPWWPWRRK [MBI 11CN]
64 µg/mL
ILKKWVWWPWRRK [MBI 11F3CN]
32 µg/mL
ILRRVJPWWPWRRR [MBI 11B9CN]
32 µg/mL
ILKKWPWWPWK [MBI 11G13CN]
128 µg/mL

###

System: bacterial isolates
Experiment: microbe, parasite or virus in culture
Type: cell-based
Settings: 1. Amikacin; A. baumannii ABI001
Experimental Endpoint: Peptide MIC Alone

KKWWRRALQGLKTAGPAIQSVLNK [MBI 21A2]
8 µg/mL
KWKLFIKKLTPAVKKVLLTGLPALIS [MBI 29F1]
8 µg/mL
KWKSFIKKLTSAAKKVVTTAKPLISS [MBI 26]
8 µg/mL
ILRWPWWPWRRKIMILKKAGS [MBI 11B16CN]
32 µg/mL

###

# reported MIC; entries follow
System: P. aeruginosa
Type: cell-based
Conditions: P. aeruginosa strain PA006
Experimental Endpoint: MIC

ILKKWPWWPWRK [MBI 11B4CN]
>128 µg/mL
ILKNPNNPWRR [MBI 11G7ACN]
>32 µg/mL
ILKKWPWWPWRR [MBI 11G7CN]
>128 µg/mL
ILKKWPWWPWR [MBI 11G14CN]
>128 µg/mL

###

Test system: bacterial isolates
Experiment: microbe, parasite or virus in culture
Assay type: cell-based
Conditions: S. aureus 19 MRSA
Experimental Endpoint: Peptide MIC + Piperacillin (µg/mL)

ILKKWPWWPWRR [MBI 11G7CN]
0.5
ILRRVJPWWPWRRR [MBI 11B9CN]
1
ILKKWPWWPWRRK [MBI 11CN]
1
ILKKWPWWPWRRK [MBI 11E3CN]
1
ILRWVWWVWRRK [MBI 11F4CN]
2
ILRWPWWPWRRK [MBI 11B7CN]
1
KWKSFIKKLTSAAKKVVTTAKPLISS [MBI 26]
1
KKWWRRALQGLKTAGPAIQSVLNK [MBI 21A2]
2

###

Test system: E. coli
Format: cell-based
Conditions: E. coli ECO005
# reported MIC; entries follow
Experimental Endpoint: MIC (µg/mL)

ILRWPAWPWRRK [MBI 11H06CN]
16
WPWWPWRRK [MBI 11G27CN]
16
ILRWPWWAWRRK [MBI 11H08CN]
8
ILRRWVWWVWRRK [MBI 11F5CN]
8
ILRWPWWPWRAK [MBI 11H11CN]
16
ILKKWPNNPNRRK [MBI 11CNW1]
32
RWWWPWRRK [MBI 11G28CN]
8
ILRWPWWPARRK [MBI 11H09CN]
32
ILRWPWWPWARK [MBI 11H10CN]
16
LWPWWPWRRK [MBI 11G24CN]
16
KRRWPWWPWKKLI [MBI 11CNR]
8
ILRAPWWPWRRK [MBI 11H04CN]
32
ALRWPWWPWRRK [MBI 11H01CN]
8
ILRWPWRRWPWRRK [MBI 11B19CN]
8

###

# reported FIC; entries follow
Test system: bacterial isolates
Experiment: microbe, parasite or virus in culture
Type: cell-based
Conditions: peptide + Tobramycin; S. maltophilia SMA030
Experimental Endpoint: FIC

ILKKFPFFPFRRK [MBI 11A1CN]
0.27
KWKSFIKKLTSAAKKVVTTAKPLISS [MBI 26]
0.05
ILKKWVWWPWRRK [MBI 11F3CN]
0.26
ILKKWPWWPWK [MBI 11G13CN]
0.50
KKWWRRALQALKNGLPALIS [MBI 22A1]
0.26

###

# reported MIC; entries follow
Test system: S. maltophilia
Assay type: cell-based
Conditions: S. maltophilia strain SMA001
Experimental Endpoint: MIC (mg/L)

ILKKWPWWPWRPMILKKAGS [MBI 11D5CN]
64
LKKWPWWPWRRK [MBI 11D1CN]
64
ILRRWPWWPWRRK [MBI 11B1CN]
64
ILKKWPWWPWRR [MBI 11G7CN]
32
ILKKWPWWPWRRK [MBI 11E1CN]
64
ILRRWPWWPWRRR [MBI 11B9ACN]
16
ILKKWPWWPWRRK [MBI 11E3CN]
32
PWWPWRRK [MBI 11D3CN]
64

###

# reported MIC; entries follow
System: A. calcoaceticus
Assay type: cell-based
Conditions: A. calcoaceticus AC002
Experimental Endpoint: MIC (µg/mL)

ILRRWVWWVWRRK [MBI 11F5CN]
4
ILRWPAWPWRRK [MBI 11H06CN]
8
ILKKFPFFPFRRK [MBI 11A1CN]
16
LRWPWWPW [MBI 11G26CN]
2
KRRWPWWPWKKLI [MBI 11CNR]
4
ILKKWPWWPWRRK [MBI 11]
8
LWPWWPWRRK [MBI 11G24CN]
4
ILRWPWRRWPWRRK [MBI 11B19CN]
4
ILRWPWWAWRRK [MBI 11H08CN]
4
PRIWKPKWRLPKR [MBI 11J01CN]
4
IARWPWWPWRRK [MBI 11H02CN]
4
ILRWPWWPWRRA [MBI 11H12CN]
4
ILAWPWWPWRRK [MBI 11H03CN]
8
ILKKWPNNPNRRK [MBI 11CNW1]
8

###

Test system: S. aureus
Assay type: cell-based
Details: S. aureus SA014
# reported MIC; entries follow
Experimental Endpoint: MIC (µg/mL)

RWWWPWRRK [MBI 11G28CN]
4
LRWPWWPW [MBI 11G26CN]
4
ILRWPWWPWRRA [MBI 11H12CN]
2

###

Test system: bacterial isolates
Test: microbe, parasite or virus in culture
Format: cell-based
Conditions: H. influenzae 1
Experimental Endpoint: Piperacillin MIC + Peptide (µg/mL)

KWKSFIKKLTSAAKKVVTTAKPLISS [MBI 26]
32
ILKKWPWWPWRRK [MBI 11E3CN]
32
ILRWPWWPWRRK [MBI 11B7CN]
32
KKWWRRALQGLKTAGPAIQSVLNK [MBI 21A2]
4

###

Tested on: microorganisms with acquired resistance
Assay: microbe, parasite or virus in culture
Assay type: cell-based
Settings: S. aureus; combination with Mupirocin; in µg/mL
Experimental Endpoint: Peptide MIC

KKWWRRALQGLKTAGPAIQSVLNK [MBI 21A2]
32
KKWWRRVLKGLSSGPALSNV [MBI 21A10]
32
KWKSFIKKLTSAAKKVLTTGLPALIS [MBI 29A3]
4
ILKKWPWWPWRRK [MBI 11CN]
16
ILKKWVWWVWRRK [MBI 11F1CN]
8
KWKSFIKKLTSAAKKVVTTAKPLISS [MBI 26]
4
ILKKFPFFPFRRK [MBI 11A1CN]
32

###

System: E. faecium
Format: cell-based
Conditions: E. faecium strain EFM001
# reported MIC; entries follow
Experimental Endpoint: MIC (µg/mL)

ILRRWPWWPWRRR [MBI 11B9ACN]
4
ILKKWPWWPWRR [MBI 11G7CN]
8
ILKWPWWPWRRK [MBI 11B3CN]
8
ILRRWPWWPWRK [MBI 11B2CN]
8
ILWPWWPWRRK [MBI 11B8CN]
16
LKKWPWWPWRRK [MBI 11D1CN]
16
ILKKWPWWPWRRK [MBI 11E2CN]
16
ILKKWPWPWRRK [MBI 11A4CN]
32
ILKNPNNPWRR [MBI 11G7ACN]
8
ILKKWPWWPWRRK [MBI 11E1CN]
8
ILKKWPWWPWR [MBI 11G14CN]
16
ILRWPWWPWRRK [MBI 11B7CN]
4

###

System: S. epidermidis
Assay type: cell-based
Details: S. epidermidis strain SE002
Experimental Endpoint: MIC (µg/mL)

ILKNPNNPWRR [MBI 11G7ACN]
4
WWKKWPWWPWRRK [MBI 11C5CN]
2
ILKKYPYYPYRRK [MBI 11A3CN]
128
ILKKWPWWVWRRK [MBI 11F2CN]
4
ILRRWPWWPWRRR [MBI 11B9ACN]
2
ILKKWPWWPRRK [MBI 11G6CN]
8
ILKKWAWWPWRRK [MBI 11C3CN]
2
ILKKWPWWWRRK [MBI 11G5CN]
2
ILKKWPWWPWR [MBI 11G14CN]
8
ILWPWWPWRRK [MBI 11B8CN]
4
ILKKWPWWPWRR [MBI 11G7CN]
2
ILKKWPWPWRRK [MBI 11A4CN]
8
ILKKWPWWAWRRK [MBI 11C4CN]
4

###

System: P. aeruginosa
Format: cell-based
Conditions: P. aeruginosa strain PA004
Experimental Endpoint: MIC

ILKKWPWPWRRK [MBI 11A4CN]
>128 µg/mL
ILKKIPIIPIRRK [MBI 11A2CN]
>128 µg/mL
KRRWPWWPWRLI [MBI 11B7CNR]
64 µg/mL
ILKKWPWW PWKKK [MBI 11B10CN]
>128 µg/mL
ILRWPWWPWRRKIMILKKAGS [MBI 11B16CN]
>128 µg/mL
